meta.source: PubChem BioAssay

Experiment: VP16 transactivation reporter inhibitors, counter-screen for LRH-1 inverse agonist project, cell-based, luminescence, high throughput (AID 651615)
Settings: Gal4-VP16 luciferase reporter cells, at 3.6 µM, hits give high values
Assign inhibition to each entry below.
One number for each entry, in %.

COc1cccc2c1C(=O)c1c(O)c3c(c(O)c1C2=O)C[C@@](O)(C(C)=O)C[C@@H]3O[C@H]1C[C@H](N)[C@H](O)[C@H](C)O1 :: 94
O=C(NCc1cccnc1)c1ccc(NC(=O)c2ccc(Br)cc2)cc1 :: 18.5
COc1ccc(C2(C)NC(=O)N(CC(=O)NCCC3=CCCCC3)C2=O)cc1OC (stereo not given) :: 0.38
COc1cccc(C(NC(C)=O)c2ccc3cccnc3c2O)c1 (stereo not given) :: 76.3
CCC(=O)Nc1ccc(NC(=O)CSc2nc3cc4c(cc3cc2C)CCC4)cc1 :: 0.93

Count: 6. Required value per item: inhibition.
1. Cc1ccc(C(=O)O/N=C(\N)c2ccccn2)c(Cl)c1
2. C1=C(CCNc2ncnc3c2[nH]c2ccccc23)CCCC1
3. CS(=O)(=O)N1CCc2cc(-c3csc(NC(=O)Cc4cccs4)n3)ccc21
4. Cn1c2c(c(=O)n(C)c1=O)C(C(F)(F)F)(C(F)(F)F)N=C(CCC1CCCCC1)N2
5. Nc1ccc2c(c1)C(=O)C(=O)c1ccccc1-2
6. Cc1onc(-c2cccc(Cl)c2Cl)c1C(=O)O/N=C(\N)c1ccc([N+](=O)[O-])o1

Ans.
1: -54.1; 2: 37.5; 3: 42.8; 4: 41.1; 5: 99.1; 6: -4.83

Count: 4. Required value per item: inhibition.
1. CN(C)c1ccc(NC(=O)CSc2nnc(-c3ccco3)c(-c3ccco3)n2)cc1
2. Oc1ccccc1N=Nc1nc(-c2ccccc2)c(-c2ccccc2)[nH]1
3. Cc1onc(-c2c(F)cccc2Cl)c1C(=O)c1ccc(F)cc1
4. CC1(C)CC(N2CCN(C(c3ccccc3)c3ccccc3)CC2)=CC(=[N+]2CCCCC2)C1

Ans.
1: -2.61; 2: 65.3; 3: -8.21; 4: 94.7

Count: 8. Required value per item: inhibition.
1. Cc1cc(C(C)(C)C)cc(C)c1C[n+]1ccc2ccccc2c1
2. CNc1c2cccc(C)c2nc2c(C(=O)NCCN(C)C)cccc12
3. C=CS(=O)(=O)N(Cc1ccccc1Br)[C@H](CO)Cc1ccccc1
4. Oc1cccc(Nc2nc(N3CCOCC3)nc(N3CCOCC3)n2)c1
5. CC(C)(C)c1ccc(C2CC2C(=O)N/N=C\c2ccc[nH]2)cc1 (stereo not given)
6. CCC(C)Nc1nc(-c2cccc(OC)c2O)nc2ccccc12 (stereo not given)
7. Cc1ccc2nc(-c3ccc(NS(C)(=O)=O)cc3)cc(-c3ccccc3)c2c1
8. CCN(CC)S(=O)(=O)c1ccc(N2CCCC2)c(NC(=O)c2ccc([N+](=O)[O-])o2)c1

Ans.
1. 72.7
2. 74.7
3. 23.2
4. 21
5. 87.4
6. -7
7. -2.14
8. 10.5

Count: 4. Required value per item: inhibition.
1. CC#CC[N+](C)(C)CCCCCCCCCCCC
2. CCC(=O)Nc1cccc(C(=O)/C=C/c2cc(Br)ccc2OC)c1
3. C/C(=N\N=C(N)N)c1cc(Cl)ccc1Cl
4. O=C(CCl)Nc1ccccc1C(=O)c1ccccc1

Ans.
1: 63.5; 2: 82.9; 3: 75.8; 4: -2.6

Count: 3. Required value per item: inhibition.
1. COc1cc(-c2noc(C)c2-c2ccc(N(C)C)nc2)cc(OC)c1OC
2. O=C(COC(=O)c1ccccn1)Nc1cccnc1Cl
3. Cc1ccc(S(=O)(=O)CC2CSc3nc4ccccc4n32)cc1 (stereo not given)

Ans.
-0.05
-6.21
50.7
